B1: STEAP1 (parent)
chain: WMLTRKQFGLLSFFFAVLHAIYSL

Variants of: B1
Assay: protein stability index of a GFP-peptide fusion (GPS, HEK-293T) (PSI 1-6); higher = more stable;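 further: lentivirally expressed fusions sorted by FACS into six bins by GFP to DsRed ratio, PSI derived from sequencing read proportions per bin multiplied by bin number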
Conditions: c terminus: a fixed tail appended
Reported values of protein stability index for individual entries
Quantity name: protein stability index

sequence_record="WMLTRKQFNLLSFFFAVLHAIYSL [G9N]" measured_value=1.46
sequence_record="WMLTRKQFGLLSFFFAVLHAICSL [Y22C]" measured_value=2.43
sequence_record="WMLTRKQFGLLSPFFAVLHAIYSL [F13P]" measured_value=1.95
sequence_record="WMLTRKQFGLLSFFFAVSHAIYSL [L18S]" measured_value=1.86
sequence_record="WMYTRKQFGLLSFFFAVLHAIYSL [L3Y]" measured_value=2.06
sequence_record="WFLTRKQFGLLSFFFAVLHAIYSL [M2F]" measured_value=1.73
sequence_record="WMLTRKQFGLLSFFFAVLHAIYST [L24T]" measured_value=2.26
sequence_record="WMLTRKQFGLLSFFFAVLHAIYSD [L24D]" measured_value=2.7
sequence_record="WMLTRKQFGLLSFFEAVLHAIYSL [F15E]" measured_value=2.7
sequence_record="WMLTRKQFGLLSFFFAQLHAIYSL [V17Q]" measured_value=3.15
sequence_record="WMLTRKQFGLGSFFFAVLHAIYSL [L11G]" measured_value=1.96
sequence_record="WMLTRKQFGLLSFFFAVLHAIYSS [L24S]" measured_value=2.14
sequence_record="WMLTRKQFGLLSFFFAVLKAIYSL [H19K]" measured_value=2.16
sequence_record="WILTRKQFGLLSFFFAVLHAIYSL [M2I]" measured_value=1.64
sequence_record="WMLTRKQFGLLSQFFAVLHAIYSL [F13Q]" measured_value=1.78
sequence_record="WMLTKKQFGLLSFFFAVLHAIYSL [R5K]" measured_value=1.52
sequence_record="WMLTRKQFGLLSFFFAVLHAEYSL [I21E]" measured_value=4.75
sequence_record="WMLTRTQFGLLSFFFAVLHAIYSL [K6T]" measured_value=2.08
sequence_record="WMLTRKQFGLLSFFFAVLHAIYFL [S23F]" measured_value=1.79
sequence_record="WMLKRKQFGLLSFFFAVLHAIYSL [T4K]" measured_value=2.13
sequence_record="WMLTRKQFGLLSGFFAVLHAIYSL [F13G]" measured_value=2.25
sequence_record="WMLTRKQFGLLSFFFAVLHAIASL [Y22A]" measured_value=1.58
sequence_record="WMLTRKQFGLLSFFFAVLHAIYSW [L24W]" measured_value=2.13
sequence_record="WMLTRKQMGLLSFFFAVLHAIYSL [F8M]" measured_value=1.94
sequence_record="WMLTRKQFGLLSFFFAVAHAIYSL [L18A]" measured_value=2.43
sequence_record="WMLTRKQFGQLSFFFAVLHAIYSL [L10Q]" measured_value=3.24
sequence_record="WMLVRKQFGLLSFFFAVLHAIYSL [T4V]" measured_value=1.92
sequence_record="AMLTRKQFGLLSFFFAVLHAIYSL [W1A]" measured_value=1.91
sequence_record="WMLTRKQFGLLSWFFAVLHAIYSL [F13W]" measured_value=1.67
sequence_record="WMLTRKQWGLLSFFFAVLHAIYSL [F8W]" measured_value=1.88
sequence_record="VMLTRKQFGLLSFFFAVLHAIYSL [W1V]" measured_value=2.18
sequence_record="WLLTRKQFGLLSFFFAVLHAIYSL [M2L]" measured_value=1.97
sequence_record="WMLTRPQFGLLSFFFAVLHAIYSL [K6P]" measured_value=1.8
sequence_record="WMLTRKQFGLLSFFFAVLHAIWSL [Y22W]" measured_value=1.99
sequence_record="WMLHRKQFGLLSFFFAVLHAIYSL [T4H]" measured_value=1.6
sequence_record="WMLTRKQFGLLNFFFAVLHAIYSL [S12N]" measured_value=2.05
sequence_record="WMLTRKQFGLKSFFFAVLHAIYSL [L11K]" measured_value=1.34
sequence_record="WMLTRKQFGLLSFFFAVLHSIYSL [A20S]" measured_value=2.41
sequence_record="WMLMRKQFGLLSFFFAVLHAIYSL [T4M]" measured_value=1.69
sequence_record="WMDTRKQFGLLSFFFAVLHAIYSL [L3D]" measured_value=2.93
sequence_record="WKLTRKQFGLLSFFFAVLHAIYSL [M2K]" measured_value=1.78
sequence_record="WMLTRKQFGLLSFFFAVLSAIYSL [H19S]" measured_value=2.34
sequence_record="WMLTRKQFRLLSFFFAVLHAIYSL [G9R]" measured_value=2.97
sequence_record="WMLTRKQFGLLPFFFAVLHAIYSL [S12P]" measured_value=3.09
sequence_record="WYLTRKQFGLLSFFFAVLHAIYSL [M2Y]" measured_value=1.99
sequence_record="RMLTRKQFGLLSFFFAVLHAIYSL [W1R]" measured_value=2.01
